# Test system: Mycobacterium tuberculosis
# EXPERIMENTAL_DETAILS: Anti-mycobacterial activity against Mycobacterium tuberculosis clinical isolate assessed as bacterial growth inhibition incubated for 7 days by microplate Alamar blue assay
# Format: functional
# SETTINGS: 168 h, time 7 day
OUTCOME_MEASURE: MIC50 (µM)

compound=NNC(=O)c1ccncc1 outcome_measure=MIC50 cmp=< quantitative_readout=0.2
compound=CC(=O)NC[C@H]1CN(c2ccc(N3CCOCC3)c(F)c2)C(=O)O1 outcome_measure=MIC50 cmp== quantitative_readout=0.34
compound=CO[C@H]1/C=C/O[C@@]2(C)Oc3c(C)c(O)c4c(O)c(c(/C=N/N5CCN(C)CC5)c(O)c4c3C2=O)NC(=O)/C(C)=C\C=C\[C@H](C)[C@H](O)[C@@H](C)[C@@H](O)[C@@H](C)[C@H](OC(C)=O)[C@@H]1C outcome_measure=MIC50 cmp=< quantitative_readout=0.04
compound="Clc1ccc(COC(Cn2ccnc2)c2ccc(Cl)cc2Cl)c(Cl)c1 (stereo not given)" outcome_measure=MIC50 cmp== quantitative_readout=1
compound=Clc1ccccc1C(c1ccccc1)(c1ccccc1)n1ccnc1 outcome_measure=MIC50 cmp== quantitative_readout=0.87

Sourced from ChEMBL document CHEMBL5390314
